test system: UACC-257 melanoma; experiment: NCI-60 one-dose screen, 48 h (100 = growth as untreated, 0 = no growth, -100 = all killed); conditions: 10 µM unless noted
The panel holds about 83,000 compounds, 20% with a hit somewhere; the sample as a whole holds those more often.
experimental readout: growth (%)
# number only, unit % dropped from output

In plain terms, "C[C@@H]1C(=O)N(C[C@@H](Cc2ccccc2)NC(=O)OCc2ccccc2)[C@]1(Cc1ccccc1)C(=O)OCc1ccccc1" has a documented growth of 19.7

Summary for this compound, "N#Cc1c(NC(=O)c2ccc(Br)cc2)sc2c1CCCC2" : growth is 66.1

Documented growth of "O=C(Nc1ccccn1)[C@H](O)[C@@H](O)C(=O)N1CCOCC1" : 101

// "Cc1cc(N(CCCNc2ccnc3cc(Cl)ccc23)Cc2ccccn2)nc(N2CCCC2)n1" : growth value = 81.6

Reported growth of "Cn1ncc2c(Nc3ccc(Br)cc3)nc(Nc3ccc(Br)cc3)nc21" : 82.6

// sample "CC(C)c1ccc(C(=O)OC(=O)c2ccc(C(C)C)cc2)cc1" , its growth was 105

Lab note: "Cc1cc(=O)c2cc3nc(-c4cccnc4)oc3c(Br)c2o1" gave growth of 106

Recorded result, "CN=C1C=CC(=C(c2ccc(N(C)C)cc2)c2ccc(N(C)C)cc2)C=C1" , growth: -43

Lab note: "Cc1nc(Nc2ccc(NC(=S)Nc3ccccc3)cc2)nc2nc(Nc3ccc(S(=O)(=O)O)cc3)[nH]c(=O)c12" gave growth of 136

Documented growth of "CN(C)c1ccc(-c2cc(-c3ccc(Nc4nc(Nc5ccccc5)nc(Nc5ccc(Cl)cc5)n4)cc3)nc(N)n2)cc1" : 55.3
